For each record, write down the corresponding koff.
target: T1, recombinant human fibronectin fragment FN7B8 (human, UniProt P02751 1173-1448); assay: SPR (BIAcore X), FN7B8 amine-coupled (about 500 RU), mutein as analyte
T1 construct: no separate number is printed for the protein, so the entry may be a nucleic acid
T1 sequence (P02751 other isoform, or with tags, fused parts or gaps limits assumed): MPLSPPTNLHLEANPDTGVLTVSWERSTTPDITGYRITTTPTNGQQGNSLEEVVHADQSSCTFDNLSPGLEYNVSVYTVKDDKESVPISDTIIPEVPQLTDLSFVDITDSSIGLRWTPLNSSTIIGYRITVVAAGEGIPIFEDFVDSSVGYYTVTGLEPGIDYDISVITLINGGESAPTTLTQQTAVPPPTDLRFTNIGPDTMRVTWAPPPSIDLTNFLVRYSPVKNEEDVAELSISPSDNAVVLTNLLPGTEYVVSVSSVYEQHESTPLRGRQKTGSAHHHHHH
The reply should contain only the number, in s⁻¹.

Exercise: Indicate its recorded koff; the binder in question is Lcn2 mutein N7E (designed binder) QDSTSDLIPAPPLSKVPLQQNFQDNQFHGKWYVVGEAGNSLLREDKDPRKMYATIYELKEDKSYNVTSVRFRSKKCHYLIRTFVPGSQPGEFTLGLIKSKPGHTSFLVRVVSTNYNQHAMVFFKTVAQNREYFFITLYGRTKELTSELKENFIRFSKSLGLPENHIVFPVPIDQCIDG
Key: 0.03

Exercise: Indicate its recorded koff; the binder in question is Lcn2 mutein N9B (designed binder) QDSTSDLIPAPPLSKVPLQQNFQDNQFHGKWYVVGRAGNMRLREDKDPAKMVATIYELKEDKSYNVTKVMFQRKKCKYMINTFVPGSQPGEFTLGAIKSPPGPTSTLVRVVSTNYNQHAMVFFKHVFQNREYFHITLYGRTKELTSELKENFIRFSKSLGLPENHIVFPVPIDQCIDG
Key: 0.075

Exercise: Indicate its recorded koff; the binder in question is Lcn2 mutein N10D (designed binder, also called NIOD; NI OD) QDSTSDLIPAPPLSKVPLQQNFQDNQFHGKWYVVGAAGNTWLREDKDPYKMQATIYELKEDKSYNVTNVLFMSKKCRYMIHTFVPGSQPGEFTLGSIKSWPGLTSWLVRVVSTNYNQHAMVFFKRVYQNREFFGITLYGRTKELTSELKENFIRFSKSLGLPENHIVFPVPIDQCIDG
Key: 0.058

Measured values drawn from patent US20130079286A1 for this set.
